Taken from patent US12629358B2.

Target: Ba/F3-KIF5B-RET cells (Homo sapiens)
Construct: host or cells: Ba/F3 (BaF3 from RIKEN BRC CELL BANK); the other entry of the earlier key: KIF5B (P33176, Kinesin-1 heavy chain)
Sequence (P07949 713-1063 limits assumed): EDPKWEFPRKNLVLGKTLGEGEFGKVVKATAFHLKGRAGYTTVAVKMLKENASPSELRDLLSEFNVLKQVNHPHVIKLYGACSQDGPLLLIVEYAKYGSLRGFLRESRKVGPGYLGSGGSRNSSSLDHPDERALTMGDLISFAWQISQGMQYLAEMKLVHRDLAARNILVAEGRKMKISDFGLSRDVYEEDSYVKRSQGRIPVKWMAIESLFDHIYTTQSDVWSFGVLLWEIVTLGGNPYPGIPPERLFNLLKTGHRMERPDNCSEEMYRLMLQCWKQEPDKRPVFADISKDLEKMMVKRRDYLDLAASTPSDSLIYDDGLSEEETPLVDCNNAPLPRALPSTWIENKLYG
Test: Cell anti-proliferation experiment (CellTiter-Glo), Ba/F3-KIF5B-RET
Assay type: cell-based
Settings: cell viability, 72 h
Please go through the items and note down their pIC50.
Give bare numbers, as −log10 of the molar value.

Answered cases to consult:
1. CO[C@]1(C(=O)N[C@@H](C)c2ccc(-n3cc(F)cn3)nc2)CC[C@H](c2nc(Nc3cc(C)[nH]n3)ccc2C#N)CC1 | 7.64
2. CO[C@]1(C(=O)N[C@@H](C)c2ccc(-n3cnc(C)n3)nc2)CC[C@H](c2nc(Nc3cc(C)[nH]n3)cc3cccnc32)CC1 | 6.84
3. CO[C@]1(C(=O)N[C@@H](C)c2ccc(-n3cnc(Cl)n3)nc2)CC[C@H](c2nc(Nc3cc(C)[nH]n3)cc3cccnc32)CC1 | 7.02
4. CO[C@]1(C(=O)N[C@@H](C)c2ccc(-n3cc(F)cn3)nn2)CC[C@H](c2nc(Nc3cc(C)[nH]n3)cc3cccnc32)CC1 | 7.53
5. CO[C@]1(C(=O)N[C@@H](C)c2ccc(-n3cc(F)cn3)nc2)CC[C@H](c2nc(Nc3cc(C)[nH]n3)cc3nccnc32)CC1 | 7.27
6. CO[C@]1(C(=O)N[C@@H](C)c2ccc(-n3cc(F)cn3)nc2)CC[C@H](c2nc(Nc3cc(C)[nH]n3)c3ccccc3n2)CC1 | 8.34
7. CO[C@]1(C(=O)N[C@@H](C)c2cnc(-n3cc(F)cn3)cn2)CC[C@H](c2nc(Nc3cc(C)[nH]n3)cc3cccnc32)CC1 | 8.28

Q: Query (molecule): CO[C@]1(C(=O)N[C@@H](C)c2ccc(-n3cc(F)cn3)nc2)CC[C@H](c2nc(Nc3cc(C)[nH]n3)cc3cccnc32)CC1 ; field requested: pIC50
A: 8.04

###

experiment: Metabolism test of drugs: plasma pharmacokinetics after intravenous and intragastric administration; assay type: in vivo; conditions: male, rat; SD rats, PO, 10 mg/kg, plasma
Please go through the items and note down their Cmax.
Give bare numbers, in ng/mL.

Answered cases to consult:
1. CO[C@]1(C(=O)N[C@@H](C)c2ccc(-n3cc(F)cn3)nc2)CC[C@H](c2nc(Nc3cc(C)[nH]n3)cc3cccnc32)CC1 | 2460
2. COC1(C(=O)N[C@@H](C)c2ccc(-n3cc(F)cn3)nc2)CC=C(c2nc(Nc3cc(C)[nH]n3)cc3cccnc23)CC1 (stereo partly shown) | 824
3. CO[C@]1(C(=O)N[C@@H](C)c2ccc(-n3cc(F)cn3)nc2)CC[C@H](c2nc(C)cc(Nc3cc(C)[nH]n3)n2)CC1 [BLU-667, reference compound] | 632

Okay, next one:
Q: Query (molecule): CO[C@]1(C(=O)N[C@@H](C)c2ccc(-n3cc(F)cn3)nc2)CC[C@H](c2nc(Nc3cc(C)[nH]n3)ccc2C#N)CC1 ; field requested: Cmax
A: 325
